# Read-out: Pselectin, SELP (gene 6403)
# testDescription: BSK_4H_Pselectin: BioMAP Diversity Plus: 4H Assay for Pselectin Biomarker Activity (AID 2283026)
# testContext: primary human endothelial cells (HUVEC); actives raise or lower the signal
The source made the active and inactive calls. The calls were made as follows: active = hit-call score of the fitted dose curve at least 0.9, where 1 is the maximum; inactive = score below 0.9.
Tick one outcome: TRUE = active, FALSE = inactive

Answered cases to consult:
CC(C)OC(=O)C(C)(C)Oc1ccc(C(=O)c2ccc(Cl)cc2)cc1    TRUE
CC(C)(C)c1ccccc1    FALSE
Cc1ccc(-c2cc(C(F)(F)F)nn2-c2ccc(S(N)(=O)=O)cc2)cc1    TRUE

Challenge: Give the logged outcome of this assay for the following molecule: "CCCCCCCCCCCCCCOS(=O)(=O)O"
Response given: FALSE

Challenge: Hey, what did the test say about "CCCCOC(=O)CCCCC(=O)OCCCC" ?
Response given: FALSE

Challenge: What outcome does the record of this test show for "CCCC(=O)O" ?
Response given: FALSE

* * *

# studySystem: human Serotonin, 5-Hydroxytryptamine Receptor 5A (5HT5A), HTR5A (gene 3361)
# testDescription: NVS_GPCR_h5HT5A: NovaScreen (NVS) G Protein-Coupled Receptor Assay for human Serotonin, 5-Hydroxytryptamine Receptor 5A (5HT5A) (AID 2283251)
Inconclusive results are not listed. Activity calls are given as the source filed them. The calls were made as follows: active = hit-call score of the fitted dose curve at least 0.9, where 1 is the maximum; inconclusive = response in the unintended direction; inactive = score below 0.9.
assayMetric: AC50

Answered cases to consult:
CCCCCCCCCCCCCCOS(=O)(=O)O    20.3 µM (active)
Cc1cc(Cc2ccc(N)c(C)c2)ccc1N    inactive
CCc1nc(N)nc(N)c1-c1ccc(Cl)cc1    inactive
CN(C)CCCN1c2ccccc2Sc2ccc(Cl)cc21    1.35 µM (active)
COc1ccc(OC(F)(F)F)cc1CN[C@H]1CCCN[C@H]1c1ccccc1    inactive

Please look at the following compound next.
Challenge: So what's the measured AC50 for this one? "CSc1ccc(Oc2ccc(S(N)(=O)=O)cc2CN(C)C)cc1C"
Response given: 7.53 µM (active)

* * *

# testDescription: APR_HepG2_NuclearSize_72hr: Apredica 72-hour HepG2 Assay for Nuclear Size (AID 2282925)
# testContext: high-content imaging, actives raise or lower the signal
# Protocol: APR_HepG2_72hr is a cell-based, multiplexed-readout assay that uses HepG2, a human liver cell line, with measurements taken at 72 hours after chemical dosing in a 384-well plate.APR_HepG2_NuclearSize_72hr is one of 10 assay component(s) measured or calculated from the APR_HepG2_72hr assay. […] This assay endpoint, APR_HepG2_NuclearSize_72hr, was analyzed with bidirectional fitting relative to DMSO as the negative control and baseline of activity. […]
Active and inactive are the calls of the source. The calls were made as follows: active = hit-call score of the fitted dose curve at least 0.9, where 1 is the maximum; inactive = score below 0.9.
Your reply should match one of these outcome classes. true (1) for active, false (0) for inactive

COC(=O)[C@H]1[C@H]2C[C@@H]3c4[nH]c5cc(OC)ccc5c4CCN3C[C@H]2C[C@@H](OC(=O)c2cc(OC)c(OC)c(OC)c2)[C@@H]1OC    false (0)
CCCCCCCCCCCCCCCCO    false (0)
Nc1nc(=S)c2[nH]cnc2[nH]1    false (0)

Challenge: What did this assay record as the result for "CC(C)COC(=O)CCCCC(=O)OCC(C)C" ?
Response given: false (0)

Challenge: What classification did "COc1ccc(C(=O)Nc2nc3ccccc3c(NCc3ccccc3)c2C#N)cc1" end up with in this test?
Response given: true (1)
